Data credit: patent US20230293526A1

- Tested on: OCI-AML3
- test: Cell proliferation CellTiterGlo Ex.2
- Format: cell-based
- experimental.conditions: Homo sapiens, OCI-AML-3; OCI-AML3 (Blood), 72 h
measured.property: pIC50
Remember, pIC50 is on a log scale: it is -log10 of the molar concentration.

INPUT: State its pIC50 for this compound: C#C[C@]1(CO)O[C@@H](n2cnc3c(=O)[nH]c(N)nc32)C[C@@H]1O
OUTPUT: 5.15

* * *

Answer each item with its documented pIC50.
- System: cancer cell lines
- test: Cancer cell proliferation activity of representative nucleosides, CellTiterGlo 72 h (Example 7, Tables 8 and 9)
- Format: cell-based
- experimental.conditions: Homo sapiens, MIA PaCa-2, 72 h, MIAPACA2, pancreas, 72 h
Remember, pIC50 is on a log scale: it is -log10 of the molar concentration.

INPUT: State its pIC50 for this compound: C#C[C@]1(CO)O[C@@H](n2ccc(N)nc2=O)C[C@@H]1O
OUTPUT: 5.26

INPUT: State its pIC50 for this compound: C[C@]1(CO)O[C@@H](n2ccc(N)nc2=O)C[C@@H]1O
OUTPUT: 6.27

INPUT: State its pIC50 for this compound: C#C[C@]1(CO)O[C@@H](n2cnc3c(=O)[nH]c(N)nc32)C[C@@H]1O
OUTPUT: 5.20

INPUT: State its pIC50 for this compound: C#C[C@]1(CO)O[C@@H](n2cc(F)c(N)nc2=O)C[C@@H]1O
OUTPUT: 5.43

INPUT: State its pIC50 for this compound: N#C[C@]1(CO)O[C@@H](n2ccc(N)nc2=O)C[C@@H]1O
OUTPUT: 5.71

* * *

- System: NCIH460
- test: Cell proliferation Ex.3
- Format: cell-based
- experimental.conditions: Homo sapiens, NCI-H460; NCIH460, 120 h
measured.property: IC50

INPUT: State its IC50 for this compound: C#C[C@]1(CO)O[C@@H](n2cc(F)c(N)nc2=O)C[C@@H]1O [compound 9]
OUTPUT: > 10 µM

* * *

- System: cancer cell lines
- test: Cancer cell proliferation activity of representative nucleosides, CellTiterGlo 72 h (Example 7, Tables 8 and 9)
- Format: cell-based
- experimental.conditions: Homo sapiens, A-431, 72 h, A431, skin, 72 h
Answer each item with its documented IC50.

INPUT: Give IC50 for C[C@]1(CO)O[C@@H](n2ccc(N)nc2=O)C[C@@H]1O [compound 30] tested on cancer cell lines.
OUTPUT: 280 nM

INPUT: Give IC50 for C#C[C@]1(CO)O[C@@H](n2cc(F)c(=O)[nH]c2=O)C[C@@H]1O [compound 15] tested on cancer cell lines.
OUTPUT: 1420 nM

INPUT: Give IC50 for C#C[C@]1(CO)O[C@@H](n2cnc3c(=O)[nH]c(N)nc32)C[C@@H]1O [compound 13] tested on cancer cell lines.
OUTPUT: 3030 nM

* * *

- System: SNB75
- test: Cell proliferation Ex.3
- Assay type: cell-based
- experimental.conditions: Homo sapiens, SNB-75; SNB75, 120 h
measured.property: IC50

INPUT: State its IC50 for this compound: C#C[C@]1(CO)O[C@@H](n2cc(F)c(N)nc2=O)C[C@@H]1O
OUTPUT: > 10 µM

* * *

- Tested on: HCT-15
- test: Cell proliferation CellTiterGlo Ex.2
- Format: cell-based
- experimental.conditions: Homo sapiens; HCT-15 (Colon), 72 h
pIC50: −log10 of the molar value.
measured.property: pIC50

INPUT: State its pIC50 for this compound: C#C[C@]1(CO)O[C@@H](n2cnc3c(=O)[nH]c(N)nc32)C[C@@H]1O
OUTPUT: < 5.00
